Listed next: entries and their corresponding recombinant barcode read abundance (log10).
Test method notes: recombinant barcode read abundance after kanamycin selection (control-corrected) (log10(CPM+1)); higher = more efficient recombination; sequences stand for … in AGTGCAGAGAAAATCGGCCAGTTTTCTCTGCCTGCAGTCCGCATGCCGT…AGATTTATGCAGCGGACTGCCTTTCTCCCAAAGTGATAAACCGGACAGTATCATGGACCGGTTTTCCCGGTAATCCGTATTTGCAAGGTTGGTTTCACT; site = the 11-nt target;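 note: IS621 recombinase and bridge RNA in Escherichia coli cells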

Recorded recombinant barcode read abundance (log10), per entry:
In [3]: df
Out[3]:
                                 seq_string  assay_value
0  CACTGATCTTGGGTTCTAACCTGTTGCCT (site CACTGTTCTAG)        0.302
1  GTACTGCCTTGGGTTCTAACCTGTTGCCT (site GTACCGCCTAG)        0.366

*Q* // recombinant barcode read abundance (log10) lookup, key: GTATCAACTTGGGTTCTAACCTGTTGCCT (site GTATCAACTAG)
*A* 0.35

*Q* // recombinant barcode read abundance (log10) lookup, key: GGGGCGTCTTGGGTTCTAACCTGTTGCTT (site GGGGCCTCTAA)
*A* 0.0129

*Q* // recombinant barcode read abundance (log10) lookup, key: ATGACCTCTTGGGTTCTAACCTGTTGCCT (site ATGTCCTCTAG)
*A* 0.0902

*Q* // recombinant barcode read abundance (log10) lookup, key: CCTGGGACTTGGGTTCTAACCTGTTGCGC (site CCTGGGACTTC)
*A* 0.214

*Q* // recombinant barcode read abundance (log10) lookup, key: GGGGCACCTTGGGTTCTAACCTGTTGCTT (site GGGGCACCTAA)
*A* 2.29

*Q* // recombinant barcode read abundance (log10) lookup, key: TAAGACGCTTGGGTTCTAACCTGTTGCCT (site TAAGACGCTAG)
*A* 2.33

*Q* // recombinant barcode read abundance (log10) lookup, key: TAACCTGCTTGGGTTCTAACCTGTTGCCT (site TAACCTCCTAG)
*A* 0.0336

# credit: the supplement of paper PMC11208160
